Numbers sourced from patent US7166598B2.

List of melting point values.

For orientation, consider the following solved cases.
Smiles text | melting point
Cl.Cl.O=C(c1cc(C(F)(F)F)cc(C(F)(F)F)c1)N1CCN(Cc2cccnc2)C[C@H]1Cc1ccc(F)c(F)c1 | 203 to 208 °C
Cl.Cl.Cl.O=C(c1cc(Cl)cc(C(F)(F)F)c1)N1CCN(CCN2CCc3ncccc3C2)C[C@H]1Cc1ccc(Cl)cc1 | 130.6 to 135.7 °C
C[C@@H]1CN(CCN2CCN(C(=O)c3cc(C(F)(F)F)cc(C(F)(F)F)c3)[C@H](Cc3ccc(F)cc3)C2)C[C@H](C)O1.Cl.Cl | 89 to 110.2 °C

# next molecule below
Input: Item COC[C@@H]1CN(CCN2CCN(C(=O)c3cc(C(F)(F)F)cc(C(F)(F)F)c3)[C@H](Cc3ccc(Cl)cc3)C2)CCO1.Cl.Cl has what recorded melting point?
Output: 90 to 120 °C

* * *

List of melting point values.

For orientation, consider the following solved cases.
Smiles text | melting point
COc1cc(C(=O)N2CCN(CCN3CCC(F)(F)CC3)C[C@H]2Cc2ccc(F)cc2)cc(C(F)(F)F)c1.Cl.Cl | 258.4 to 261.4 °C
COc1cc(C[C@@H]2CN(CCN3C[C@@H](C)O[C@@H](C)C3)CCN2C(=O)c2cc(C(F)(F)F)cc(C(F)(F)F)c2)ccc1F.Cl.Cl | 205 to 208 °C
Cl.Cl.Cl.O=C(c1cc(C(F)(F)F)cc(C(F)(F)F)c1)N1CCN(CCN2CCc3ncccc3C2)C[C@H]1Cc1ccc2ccccc2c1 | 189 to 194 °C

Input: Item Cl.Cl.Cl.O=C(c1cc(F)cc(C(F)(F)F)c1)N1CCN(CCN2CCc3ncccc3C2)C[C@H]1Cc1ccc(Cl)cc1 has what recorded melting point?
Output: 127.3 to 130.9 °C

Input: Cl.Cl.O=C(c1cc(C(F)(F)F)cc(C(F)(F)F)c1)N1CCN(CCCc2cccnc2)C[C@H]1Cc1ccc(Cl)cc1 , same question.
Output: 60 to 100 °C

Input: Cl.Cl.Cl.O=C(c1cc(C(F)(F)F)cc(C(F)(F)F)c1)N1CCN(CCN2CCc3ncccc3C2)C[C@H]1Cc1ccc(F)cc1 , same question.
Output: 155.5 to 170.1 °C

Input: COc1cc(C(=O)N2CCN(CCN3CCc4ncccc4C3)C[C@H]2Cc2ccc(Cl)c(O)c2)cc(C(F)(F)F)c1.Cl.Cl.Cl , same question.
Output: 225 to 240 °C (dec.)

* * *

List of melting point values.

Smiles text | melting point
COC[C@@H]1CN(CCN2CCN(C(=O)c3cc(F)cc(C(F)(F)F)c3)[C@H](Cc3ccc(Cl)cc3)C2)CCO1.Cl.Cl | 199 to 204 °C
COc1cc(C(=O)N2CCN(Cc3cnn(C)c3)C[C@H]2Cc2ccc(C(F)(F)F)cc2)cc(C(F)(F)F)c1.Cl | 218 to 223 °C
Cl.Cl.Cl.O=C(c1cc(Cl)cc(C(F)(F)F)c1)N1CCN(CCN2CCc3ncccc3C2)C[C@H]1Cc1ccc(Cl)c(O)c1 | 200 to 204 °C

Input: Item COC[C@H]1CN(CCN2CCN(C(=O)c3cc(C(F)(F)F)cc(C(F)(F)F)c3)[C@H](Cc3ccc(C)c(O)c3)C2)CCO1.Cl.Cl has what recorded melting point?
Output: 225 to 235 °C

Input: Cc1ccc(C[C@@H]2CN(CCN3CCc4sccc4C3)CCN2C(=O)c2cc(C(F)(F)F)cc(C(F)(F)F)c2)cc1O.Cl.Cl , same question.
Output: 245 to 265 °C

Input: COC[C@@H]1CN(CCN2CCN(C(=O)c3cc([N+](=O)[O-])cc(C(F)(F)F)c3)[C@H](Cc3ccc(C)c(O)c3)C2)CCO1.Cl.Cl , same question.
Output: 181 to 185 °C

Input: COC[C@@H]1CN(CCN2CCN(C(=O)c3cc(C(F)(F)F)cc(S(=O)(=O)C4CCCC4)c3)[C@H](Cc3ccc(Cl)cc3)C2)CCO1.Cl.Cl , same question.
Output: > 230 °C
